Measured inhibition at 10 µM by item
Biological target: BTK (Homo sapiens)
Sequence (Q06187 402-655 limits assumed): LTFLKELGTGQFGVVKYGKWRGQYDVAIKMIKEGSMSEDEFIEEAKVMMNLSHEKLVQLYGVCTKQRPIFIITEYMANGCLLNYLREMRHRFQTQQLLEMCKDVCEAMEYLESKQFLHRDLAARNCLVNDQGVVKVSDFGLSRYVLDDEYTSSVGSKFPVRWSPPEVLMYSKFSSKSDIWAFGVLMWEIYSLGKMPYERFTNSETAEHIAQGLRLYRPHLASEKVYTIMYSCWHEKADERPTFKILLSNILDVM
Experiment: biochemical
Details: read-out: BTK inhibition (%), 0.75 uM BTK, […] probe 3l, 15 min preincubation
assay.readout: inhibition at 10 µM (%)

{"compound": "O=C(O)CC1CC(c2ccccc2)=NO1 (centres unmarked)", "result.unit": "%", "measured.number": -2.1}
{"compound": "C=C1CCOC1=O", "result.unit": "%", "measured.number": 0.8}
{"compound": "CCNC(=O)[C@@H]1CCCN1C(=O)[C@H](CCCN=C(N)N)NC(=O)[C@H](CC(C)C)NC(=O)[C@@H](C)NC(=O)[C@H](Cc1ccc(O)cc1)NC(=O)[C@H](CO)NC(=O)[C@H](Cc1c[nH]c2ccccc12)NC(=O)[C@H](Cc1cnc[nH]1)NC(=O)C1CCC(=O)N1 (some centres unmarked)", "result.unit": "%", "measured.number": 23.8}
{"compound": "Cc1cc(NC(=O)Nc2ccc(N(C)C)cc2)c2cc(F)cc(F)c2n1", "result.unit": "%", "measured.number": 6.2}
{"compound": "CCNc1nc(Nc2cc(F)c(C(=O)N3CCOCC3)cc2OC)ncc1C(F)(F)F", "result.unit": "%", "measured.number": -9}
{"compound": "Nc1[nH]c(=O)ncc1Br", "result.unit": "%", "measured.number": 8.5}
{"compound": "CC(C)(Sc1ccncc1-c1ccc(C#N)c2ccccc12)C(=O)O", "result.unit": "%", "measured.number": -27.8}
{"compound": "O=C1Cc2c([nH]c3ccc(Br)cc23)-c2ncccc2N1", "result.unit": "%", "measured.number": -2.1}

Ref: paper PMC8041284
